test system: CCRF-CEM; experiment: NCI tumour cell line growth inhibition, 48 h
Activity calls are given as the source filed them. No stated cut-off is given here; in the data, active = GI50 up to about 1.1 µM and inactive = higher.
quantity-name: GI50

[[record]]
compound = "CC1C[C@@]2(c3ccccc3)C(=O)CCC[C@H]2N1 (stereo not given in full)"
target_or_test_system = "CCRF-CEM"
quantity_name = "GI50"
reported_result = "> 100 µM (inactive)"

[[record]]
compound = "COc1cc(C2c3cc4c(cc3[C@@H](Nc3ccc(N(C)C)cc3)[C@H]3COC(=O)C23)OCO4)cc(OC)c1O (stereo not given in full)"
target_or_test_system = "CCRF-CEM"
quantity_name = "GI50"
reported_result = "0.153 µM (active)"

[[record]]
compound = "Cc1cc(C)nc(NS(=O)(=O)c2ccc(Nc3c4ccccc4nc4c(C(=O)NC(CO)(CO)CO)cccc34)cc2)n1"
target_or_test_system = "CCRF-CEM"
quantity_name = "GI50"
reported_result = "16.1 µM (inactive)"

[[record]]
compound = "CCCC(=O)OCC1OC(n2cc(F)c(=O)[nH]c2=O)C(F)C1O (stereo not given)"
target_or_test_system = "CCRF-CEM"
quantity_name = "GI50"
reported_result = "2.24 µM (inactive)"

[[record]]
compound = "O/N=C1\\SC(=N\\O)/C(=N/O)S\\C1=N/O"
target_or_test_system = "CCRF-CEM"
quantity_name = "GI50"
reported_result = "> 100 µM (inactive)"

[[record]]
compound = "N#CCCN(CCC#N)c1ccc(/C=C(\\NC(=O)c2cc([N+](=O)[O-])ccc2Cl)C(=O)Nc2ccccc2)cc1"
target_or_test_system = "CCRF-CEM"
quantity_name = "GI50"
reported_result = "5.87 µM (inactive)"

[[record]]
compound = "COC(=O)CNC(=O)CSc1nnc(COc2ccc(Cl)cc2)n1-c1ccccc1"
target_or_test_system = "CCRF-CEM"
quantity_name = "GI50"
reported_result = "57.4 µM (inactive)"

[[record]]
compound = "CCCCNC(=O)c1cc2c(cc1Cl)Sc1nccn1S2(=O)=O"
target_or_test_system = "CCRF-CEM"
quantity_name = "GI50"
reported_result = "77.6 µM (inactive)"

[[record]]
compound = "O=C1CC[C@@]23CC(=O)O[C@@H]2CCCC3C1 (stereo not given in full)"
target_or_test_system = "CCRF-CEM"
quantity_name = "GI50"
reported_result = "> 100 µM (inactive)"

[[record]]
compound = "C[N+](C)=c1[nH]c2ccccc2[nH]1"
target_or_test_system = "CCRF-CEM"
quantity_name = "GI50"
reported_result = "> 100 µM (inactive)"


###

tested on: SR; test: NCI tumour cell line growth inhibition, 48 h
Activity calls are given as the source filed them. Rule as the data show it: active = GI50 up to about 1.1 µM and inactive = higher.
# GI50 listing for each entry below
quantity-name: GI50

[[record]]
compound = "COP1(=O)Oc2ccccc2C(=O)C(C(F)(F)F)(C(F)(F)F)O1 (stereo not given)"
target_or_test_system = "SR"
reported_result = "> 100 µM (inactive)"

[[record]]
compound = "CC(OC(=O)NCn1cc(-c2ccccc2)nn1)c1ccccc1 (stereo not given)"
target_or_test_system = "SR"
reported_result = "30.2 µM (inactive)"

[[record]]
compound = "CC1=NN(c2nc(N)nc(/C(C#N)=C/c3cccn3-c3cc(Cl)cc(Cl)c3)n2)C(C)(C)C1"
target_or_test_system = "SR"
reported_result = "1.42 µM (inactive)"

[[record]]
compound = "O=c1c(Sc2c(SCSc3cnc4ccccc4c3Sc3c[nH]c4ccccc4c3=O)cnc3ccccc23)c[nH]c2ccccc12"
target_or_test_system = "SR"
reported_result = "0.877 µM (active)"

[[record]]
compound = "COC(=O)[C@]1(C)C(OC)=CC(=O)C2C1[C@H]1CCC[C@@H]21 (stereo not given in full)"
target_or_test_system = "SR"
reported_result = "> 100 µM (inactive)"

[[record]]
compound = "COc1cc(C(=O)C/C(CCC(=O)Nc2ccccc2[N+](=O)[O-])=N\\NC(=O)C(N)=O)ccc1O"
target_or_test_system = "SR"
reported_result = "> 100 µM (inactive)"

[[record]]
compound = "O=c1ccn(C2OC(CO)C(O)C2[Se]c2ccccc2)c(=O)[nH]1 (stereo not given)"
target_or_test_system = "SR"
reported_result = "> 100 µM (inactive)"

[[record]]
compound = "C/N=c1\\sc2nc(C#N)c(C#N)nc2n1C"
target_or_test_system = "SR"
reported_result = "> 57 µM (inactive)"

[[record]]
compound = "O=C(/C(=C\\I)c1ccccc1)c1ccccc1"
target_or_test_system = "SR"
reported_result = "8.18 µM (inactive)"

[[record]]
compound = "O=C(CC(=O)c1ccccc1NC1=Cc2ccccc2C(=O)C1=O)C(=O)NC1=C(Cl)C(=O)c2ccccc2C1=O"
target_or_test_system = "SR"
reported_result = "1.44 µM (inactive)"


###

test system: MOLT-4; assay: NCI tumour cell line growth inhibition, 48 h
The source made the active and inactive calls. Cut-off read from the data, not from the text of the source: active = GI50 up to about 1.1 µM and inactive = higher. Non-standard residues stand in square brackets, D forms with d. Residues, ends and D or L forms follow the SMILES beside them. ξ: configuration not given here. *: point of attachment. ξNMeF = CNC(Cc1ccccc1)C(=O)O; NMeV = CN[C@H](C(=O)O)C(C)C; Boc = CC(C)(C)OC(=O)*; OBn = c1ccc(CO*)cc1
quantity-name: GI50

[[record]]
molecule = "O=C(N/C(=C\\c1ccccc1Cl)c1nc2ccccc2[nH]1)c1ccccc1"
target_or_test_system = "MOLT-4"
quantity_name = "GI50"
reported_result = "20.6 µM (inactive)"

[[record]]
molecule = "CC(=O)NNC(=O)C1CCCCN1 (centres undefined)"
target_or_test_system = "MOLT-4"
quantity_name = "GI50"
reported_result = "> 100 µM (inactive)"

[[record]]
molecule = "COc1ccccc1C(=O)c1ccc2ccccc2c1"
target_or_test_system = "MOLT-4"
quantity_name = "GI50"
reported_result = "4.34 µM (inactive)"

[[record]]
molecule = "O=C1c2c[nH]nc2C(c2ccccc2)N1c1ccccc1 (centres undefined)"
target_or_test_system = "MOLT-4"
quantity_name = "GI50"
reported_result = "> 10 µM (inactive)"

[[record]]
molecule = "CC1=C(/C=C/C(C)=C/C=C/C(C)=C/C=C/C=C(C)/C=C/C=C(C)/C=C/C=C(C)/C=C/C=C(\\C)C(=O)O)C(C)(C)CCC1"
target_or_test_system = "MOLT-4"
quantity_name = "GI50"
reported_result = "> 100 µM (inactive)"

[[record]]
molecule = "CC1CC#CCOC(=O)CCCC1=O (centres undefined)"
target_or_test_system = "MOLT-4"
quantity_name = "GI50"
reported_result = "> 100 µM (inactive)"

[[record]]
molecule = "Cc1cccc(C(C)C)c1NC(=O)C(=O)CC(=O)c1sc(Nc2ccccc2Cl)nc1C"
target_or_test_system = "MOLT-4"
quantity_name = "GI50"
reported_result = "25.6 µM (inactive)"

[[record]]
molecule = "CC(=O)NCCCCNCCCNC(C)=O"
target_or_test_system = "MOLT-4"
quantity_name = "GI50"
reported_result = "> 100 µM (inactive)"

[[record]]
molecule = "CC(C)[C@@H](C(=O)N(C)[C@H](C(=O)N1CCC[C@H]1C(=O)OCc1ccccc1)C(C)C)N(C)C(=O)C(Cc1ccccc1)N(C)C(=O)[C@H](NC(=O)OC(C)(C)C)C(C)C (some centres undefined) (Boc-[dV][ξNMeF][NMeV][NMeV]P-OBn)"
target_or_test_system = "MOLT-4"
quantity_name = "GI50"
reported_result = "10.7 µM (inactive)"


###

test system: CCRF-CEM; assay: NCI tumour cell line growth inhibition, 48 h
Active and inactive are the calls of the source. Cut-off read from the data, not from the text of the source: active = GI50 up to about 1.1 µM and inactive = higher.
quantity-name: GI50

[[record]]
molecule = "CC(Oc1ccc(Cl)cc1Cl)C(=O)NN1C(=O)CSC1c1ccccc1 (stereo unspecified)"
reported_result = "66.7 µM (inactive)"

[[record]]
molecule = "CC1(C)CCC2=C(O1)/C(=N\\Nc1ccc(S(N)(=O)=O)cc1)c1ccccc1C2=O"
reported_result = "11.3 µM (inactive)"

[[record]]
molecule = "OC12c3ccccc3C3CCC4(OCCO4)C3C1c1ccccc12 (stereo unspecified)"
reported_result = "> 100 µM (inactive)"

[[record]]
molecule = "CCC(C#N)(c1ccccc1)N(CCc1ccccc1)C(=O)c1ccccc1 (stereo unspecified)"
reported_result = "> 100 µM (inactive)"

[[record]]
molecule = "O=C1C/C(=C\\O)C(=O)c2ccccc2N1"
reported_result = "> 100 µM (inactive)"

[[record]]
molecule = "CN(C(=O)Cc1cc(Cl)c(Cl)cc1N=C=S)[C@H]1CCCC[C@@H]1N1CCCC1"
reported_result = "2.07 µM (inactive)"

[[record]]
molecule = "O=c1c(-c2ccccc2)c(SCCN2CCCC2)n(-c2ccccc2)c(=S)n1-c1ccccc1"
reported_result = "> 100 µM (inactive)"

[[record]]
molecule = "Cc1cccc(C(C)C)c1NC(=O)C(=O)CC(=O)c1sc(Nc2ccccc2Cl)nc1C"
reported_result = "30.3 µM (inactive)"

[[record]]
molecule = "C=C(Cl)C(Cl)(CCl)CCC(Br)C(C)(C)Br (stereo unspecified)"
reported_result = "> 10 µM (inactive)"

[[record]]
molecule = "COC(=O)C1CCC(=O)N1C(c1ccc2c(c1)OCO2)c1ccc2c(c1)OCO2 (stereo unspecified)"
reported_result = "> 100 µM (inactive)"

[[record]]
molecule = "NC(=S)N/N=C\\c1nccc2ccccc12"
reported_result = "0.27 µM (active)"

